Tested on: SKOV-3
METHOD_DESCRIPTION: SRB colorimetric cell growth inhibition assay, SKOV-3
Format: cell-based
RECORDED_CONDITIONS: Homo sapiens, SK-OV-3, read-out: LC50 SKOV-3
READOUT_NAME: LC50 (concentration causing 50% net cell killing) (µM)
Report only the number, with the unit µM understood.

As a guide, the following entries are already answered.
{"columns": ["SUBSTANCE_SMILES", "RESULT_UNIT", "ASSAY_RESULT"],
 "data": [
  ["COc1cc(-c2c3n(c4c(=O)oc5cc(OC(=O)[C@H](N)C(C)C)c(OC)cc5c24)CCc2cc(OC(=O)[C@H](N)C(C)C)c(OC)cc2-3)ccc1OC(=O)[C@H](N)C(C)C", "µM", 7.27],
  ["COc1cc(-c2c3n(c4c(=O)oc5cc(OC(=O)[C@@H](N)C(C)C)c(OC)cc5c24)CCc2cc(OC(=O)[C@@H](N)C(C)C)c(OC)cc2-3)ccc1OC(=O)[C@@H](N)C(C)C", "µM", 7.87]
]}

// moving on: another record for LC50 (concentration causing 50% net cell killing)
# value of LC50 (concentration causing 50% net cell killing), SKOV-3, item COc1cc(-c2c3c4cc(OC)c(OC(=O)[C@@H](N)C(C)C)cc4oc(=O)c3n3ccc4c(OC(=O)[C@@H](N)C(C)C)c(OC)c(OC)cc4c23)ccc1OC(=O)[C@@H](N)C(C)C = 3.83

* * *

Test system: LNCaP
METHOD_DESCRIPTION: SRB colorimetric cell growth inhibition assay, LNCaP
Assay type: cell-based
RECORDED_CONDITIONS: Homo sapiens, LNCaP, LN-caP; cell killing (cytotoxic effect); read-out: LC50 LN-caP
# CC50 annotations
Report only the number, with the unit µM understood.

{"columns": ["COMPOUND", "CC50 / µM"],
 "data": [
  ["COc1cc(-c2c3c4cc(OC)c(OC(=O)CCc5ccccc5)cc4oc(=O)c3n3ccc4cc(OC(=O)CCc5ccccc5)c(OC)cc4c23)ccc1OC(=O)CCc1ccccc1 [Compound 8]", 7.21]
]}

Record summary for CC[C@H](C)[C@H](NC(=O)OC(C)(C)C)C(=O)Oc1ccc(-c2c3c4cc(OC)c(OC(=O)[C@@H](NC(=O)OC(C)(C)C)[C@@H](C)CC)cc4oc(=O)c3n3ccc4cc(OC(=O)[C@@H](NC(=O)OC(C)(C)C)[C@@H](C)CC)c(OC)cc4c23)cc1OC [Compound 208] : reported CC50 = 5.83

Record summary for COc1cc(-c2c3c4cc(OC)c(OC(=O)CCCCCN)cc4oc(=O)c3n3ccc4c(OC(=O)CCCCCN)c(OC)c(OC)cc4c23)ccc1OC(=O)CCCCCN [Compound 193] : reported CC50 = 5.49

Record summary for COc1cc(-c2c3n(c4c(=O)oc5cc(OC(=O)[C@H](C)NC(=O)[C@H](C)NC(=O)OC(C)(C)C)c(OC)cc5c24)CCc2cc(OC(=O)[C@H](C)NC(=O)[C@H](C)NC(=O)OC(C)(C)C)c(OC)cc2-3)ccc1OC(=O)[C@H](C)NC(=O)[C@H](C)NC(=O)OC(C)(C)C [Compound 7] : reported CC50 = 3.61

* * *

System: K-562
METHOD_DESCRIPTION: SRB colorimetric cell growth inhibition assay, K-562
Assay type: cell-based
RECORDED_CONDITIONS: K-562; cell killing (cytotoxic effect); read-out: LC50 K-562
Method: The finality of these assays is to interrupt the growth of an “in vitro” tumor cell culture by means a continued exhibition of the cells to the sample to be testing. A colorimetric type of assay, using sulforhodamine B (SRB) reaction has been adapted for a quantitative measurement of cell growth and viability (following the technique described by P. A. Skehan, et al., J. Natl. Cancer Inst. 1990, 82, 1107-1112). […] The values for mean +/− SD of data from triplicate wells are calculated. […]
READOUT_NAME: CC50

As a guide, the following entries are already answered.
{"columns": ["MOLECULE", "SYSTEM_NAME", "CC50"],
 "data": [
  ["COc1cc(-c2c3c4cc(OC)c(OC(=O)[C@H](C)N)cc4oc(=O)c3n3ccc4c(OC(=O)[C@H](C)N)c(OC)c(OC)cc4c23)ccc1OC(=O)[C@H](C)N [Compound 16]", "K-562", "2.23 µM"],
  ["COc1cc(-c2c3n(c4c(=O)oc5cc(OC(C)=O)c(OC)cc5c24)CCc2cc(OC)c(OC(C)=O)cc2-3)ccc1OC(C)=O [Compound 94]", "K-562", "4.32 µM"]
]}

// moving on: another record for CC50
Record summary for COc1cc(-c2c3n(c4c(=O)oc5cc(OS(C)(=O)=O)c(OC)cc5c24)CCc2cc(OS(C)(=O)=O)c(OC)cc2-3)ccc1OS(C)(=O)=O [Compound 22] : reported CC50 = 13.6 µM
